Test system: 276233-004-R-J1-PDC KRAS spheroids with HUVEC/MSC, viability;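 note: cells exposed to agents for seven days before viability read; 100% = DMSO vehicle control wells and lower values mean fewer viable cells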
Experiment: Anticancer human tumor 276233-004-R-J1-PDC patient-derived colon adenocarcinoma cell line growth inhibition [KRAS2]
Details: second compound 0.316 µM; first compound 0.1 µM; stronger effect = lower value
Experimental readout: viability, T/C (%)

• CC1OCC2(CCN(c3cnc(Sc4ccnc(N)c4Cl)c(N)n3)CC2)C1N (stereo unspecified) + CNCc1ccccc1-c1csc(C(C)Nc2nc(C)nc3cc(OC)c(OC)cc23)c1 = 90.2
• CCNC(=O)CC1N=C(c2ccc(Cl)cc2)c2cc(OC)ccc2-n2c(C)nnc21 (stereo unspecified) + CC1OCC2(CCN(c3cnc(Sc4ccnc(N)c4Cl)c(N)n3)CC2)C1N = 73.1
• O=C(c1cc(Cc2n[nH]c(=O)c3ccccc23)ccc1F)N1CCN(C(=O)C2CC2)CC1 + C=CC(=O)N1CCN(c2nc(=O)n(-c3c(C)ccnc3C(C)C)c3nc(-c4c(O)cccc4F)c(F)cc23)C(C)C1 = 103
• CC(C)NCC(C(=O)N1CCN(c2ncnc3c2C(C)CC3O)CC1)c1ccc(Cl)cc1 (stereo unspecified) + CC1OCC2(CCN(c3cnc(Sc4ccnc(N)c4Cl)c(N)n3)CC2)C1N = 69
• COc1cc(Nc2ncc3c(n2)-c2ccc(Cl)cc2C(c2c(F)cccc2OC)=NC3)ccc1C(=O)O + C=CC(=O)N1CCN(c2nc(OCC3CCCN3C)nc3c2CCN(c2cccc4cccc(C)c24)C3)CC1CC#N = 79
• COC(=O)c1ccc2c(C(=Nc3ccc(N(C)C(=O)CN4CCN(C)CC4)cc3)c3ccccc3)c(O)[nH]c2c1 + COc1cc2nc(C)nc(NC(C)c3cc(N)cc(C(F)(F)F)c3)c2cc1OC1CCOC1 = 71.5

Measured values drawn from PubChem BioAssay AID1963873 for this set.
